These data points were gathered from the supplement of paper PMC11451515.

Measured cell viability values are reported for all entries that follow.
# Test system: P12-Ichikawa
# ASSAY: cell viability relative to DMSO control; higher = less cytotoxic
# CONDITIONS: RPMI 5 mM glucose + 10% FBS; 48 h; 0.00234 µM
EXPERIMENTAL_ENDPOINT: cell viability (%)

                                    molecule  experimental_endpoint  test_result
 0  COc1cc([C@@H]2c3cc4c(cc3[C@H](O)[C@H]3COC(=O)[C@@H]23)OCO4)cc(OC)c1OC         cell viability         95.3
 1    CCOC(=O)[C@@]1(CCCCCCOc2ccc(Cl)cc2)CO1         cell viability          115
 2  Cc1cn([C@H]2C=C[C@@H](CO)O2)c(=O)[nH]c1=O         cell viability          111
 3  CCOc1cc2ncc(C#N)c(Nc3ccc(F)c(Cl)c3)c2cc1NC(=O)/C=C/CN(C)C         cell viability          120
 4  O=C(CS(=O)Cc1ccco1)NC/C=C\COc1cc(CN2CCCCC2)ccn1 (configuration not stated)         cell viability           88
 5  Cc1ccc([N+](=O)[O-])cc1[S+](=O)([O-])N(C)/N=C/c1cnc2ccc(Br)cn12         cell viability          106
 6  NC(=O)[C@H]1CCS[C@@H]2C[C@]3(CCCN3C(=O)Cc3ccc(NC(=O)COc4ccc(Cl)cc4Cl)cc3)C(=O)N12         cell viability          109
 7       CN(C)c1ccc2nc3ccc(N(C)C)cc3[s+]c2c1         cell viability          106
 8  COc1cc(Nc2c(C#N)cnc3cc(OCCCN4CCN(C)CC4)c(OC)cc23)c(Cl)cc1Cl         cell viability          123
 9            N#Cc1ccc(Oc2ccc3c(c2)COB3O)cc1         cell viability          120
10  CCN(CCO)CCCOc1ccc2c(Nc3cc(CC(=O)Nc4cccc(F)c4)[nH]n3)ncnc2c1         cell viability          110
11  O=C(Nc1c[nH]nc1-c1nc2cc(CN3CCOCC3)ccc2[nH]1)NC1CC1         cell viability          103
12  CCC[S+](=O)([O-])Nc1ccc(F)c(C(=O)c2c[nH]c3ncc(Cl)cc23)c1F         cell viability          115
13  O=C(O)CCCCC(CCSCc1ccccc1)SCc1ccccc1 (configuration not stated)         cell viability          117
14  CC[C@]12CC[C@H]3[C@@H](CCC/4=C/C(=O)CC[C@H]34)[C@@H]1CC[C@@]2(O)C#C         cell viability         88.3
15  Cc1nn(C)c(COc2ccc(N3CCN([S+](=O)([O-])N(C)C)CC3)cc2)c1-c1cccc2c(CCCOc3cccc4ccccc34)c(C(=O)O)n(CCN3CCOCC3)c12         cell viability          107
16  CCOc1cc2ncc(C#N)c(Nc3ccc(OCc4ccccn4)c(Cl)c3)c2cc1NC(=O)/C=C/CN(C)C         cell viability          125

----------
# Test system: SEM cells
# ASSAY: cell viability relative to DMSO control; higher = less cytotoxic
# CONDITIONS: RPMI 5 mM glucose + 10% FBS; 48 h; 0.0211 µM
EXPERIMENTAL_ENDPOINT: cell viability (%)

In [3]: df
Out[3]:
                                input_smiles  test_result
 0              [O-]C(=O)C/1=N/C(=O)NC(=O)N1         93.6
 1  Cc1ccc(C(=O)Nc2cccc(C(F)(F)F)c2)cc1-c1ccc2nc(NCCN3CCOCC3)ncc2c1          125
 2  COc1cc(CCc2cc(NC(=O)c3ccc(N4C[C@@H](C)N[C@@H](C)C4)cc3)n[nH]2)cc(OC)c1          123
 3  CC(=O)OC[C@H]1O[C@@H]([S-])[C@H](OC(C)=O)[C@@H](OC(C)=O)[C@@H]1OC(C)=O.CCP(CC)CC.[Au+]         84.8
 4  CC(C)(F)C[C@H](N[C@@H](c1ccc(-c2ccc([S+](C)(=O)[O-])cc2)cc1)C(F)(F)F)C(=O)NC1(C#N)CC1          117
 5  CCOc1cc2ncc(C#N)c(Nc3ccc(OCc4ccccn4)c(Cl)c3)c2cc1NC(=O)/C=C/CN(C)C         80.8
 6         O=C(CCc1ccc(O)cc1)c1c(O)cc(O)cc1O         85.6
 7  CC[S+](=O)([O-])Nc1ccc2c(c1)/C(=C(/Nc1ccc(CN3CCCCC3)cc1)c1ccccc1)C(=O)N2          108
 8       c1ccc2c(Cc3c[nH]c4ccccc34)c[nH]c2c1          104
 9    CCOC(=O)[C@@]1(CCCCCCOc2ccc(Cl)cc2)CO1          120
10  C[N]1C=C(C2=CC=CC=C12)\C3=C(\C(=O)NC3=O)C4=C[N](C5CCN(CC5)CC6=NC=CC=C6)C7=C4C=CC=C7          119
11           O=C(NCCCCN1CCOCC1)c1cc2ccccc2o1          123

----------
Measured cell viability values are reported for all entries that follow.
# Test system: SEM cells
# ASSAY: cell viability relative to DMSO control; higher = less cytotoxic
# CONDITIONS: HPLM + 10% dialyzed FBS; 48 h; 0.0211 µM

COMPOUND	cell viability, %
c1ccc2c(Cc3c[nH]c4ccccc34)c[nH]c2c1	89.4
CN(C)C1=CC(=CC=C1)C\2=C\3C(=O)N(NC3=C/C(=O)N2C)C4=CC=CC=C4Cl	107
CCN1\C=C(\C(O)=O)C(=O)C2=C1N=C(N3CCNCC3)C(=C2)F	87.3
[O-]C(=O)C/1=N/C(=O)NC(=O)N1	111
Cc1c(-c2cccc3c(CCCOc4cccc5ccccc45)c(C(=O)O)n(Cc4cccnc4)c23)c(COc2ccc(N3CCN([S+](=O)([O-])N(C)C)CC3)cc2)nn1C	85.2
O=S(=O)([O-])CCS.[Na+]	96.9
O=C1NCCc2[nH]c(-c3ccncc3)cc21	128
CO[C@@]12[C@H](COC(N)=O)C/3=C(N1C[C@@H]4N[C@H]24)/C(=O)/C(=C(N)\C3=O)C	114
C/C(=N\NC(=S)N1CCC1)c1ccccn1	16.3
OC[C@H]1O[C@H](C[C@@H]1O)N2\C=C(F)/C(=O)NC2=O	86.7
CC(C)N(C[C@H]1O[C@@H](n2cnc3c(N)ncnc32)[C@H](O)[C@@H]1O)[C@H]1C[C@@H](CCc2nc3cc(C(C)(C)C)ccc3[nH]2)C1	90.5
CCc1cc2c(cc1N1CCC(N3CCOCC3)CC1)C(C)(C)c1[nH]c3cc(C#N)ccc3c1C2=O	102
N#CC(c1ccnc(NCCc2cccnc2)n1)c1nc2ccccc2s1 (stereo not given)	117
CC(=O)c1cnc2ccc(-c3cc(Cl)c(O)c(Cl)c3)nc2c1N[C@H]1CC[C@H](CN(C)C)CC1	99.2
C[C@H]1C[C@H]2[C@@H]3CC[C@](O)(C(=O)CO)[C@@]3(C)C[C@H](O)[C@@H]2[C@@]\4(C)/C=C\C(=O)\C=C14	87.1
O=C(O)CCCCC(CCSCc1ccccc1)SCc1ccccc1 (stereo not given)	110
N[C@H]2CN(CC12CC1)c3c(F)cc4c(c3Cl)[N@@](C=C(C4=O)C(=O)O)C5C[C@H]5F (stereo not given in full)	88.9
Cc1nn(C)c(COc2ccc(N3CCN([S+](=O)([O-])N(C)C)CC3)cc2)c1-c1cccc2c(CCCOc3cccc4ccccc34)c(C(=O)O)n(CCN3CCOCC3)c12	99.8
Cc1cc(OCCC[S+](C)(=O)[O-])cc(C)c1-c1cccc(COc2ccc3c(c2)OC[C@H]3CC(=O)O)c1	104
CCC(C)N1\N=C/N(C1=O)C2=CC=C(C=C2)N3CCN(CC3)C4=CC=C(OC[C@H]5CO[C@@](C[N]6C=NC=N6)(O5)C7=CC=C(Cl)C=C7Cl)C=C4 (stereo not given in full)	116
CCOC(=O)N1c2ccc(C(F)(F)F)cc2[C@@H](N(Cc2cc(C(F)(F)F)cc(C(F)(F)F)c2)C(=O)OC)C[C@H]1CC	124
CCN(CCO)CCCOc1ccc2c(Nc3cc(CC(=O)Nc4cccc(F)c4)[nH]n3)ncnc2c1	119
CC(C)(O)[C@H]1CC[C@@](C)([C@H]2[C@@H](O)C[C@@]3(C)[C@@H]4C[C@H](O[C@@H]5O[C@H](CO)[C@@H](O)[C@H](O)[C@H]5O)[C@H]5C(C)(C)[C@@H](O[C@@H]6OC[C@@H](O)[C@H](O)[C@H]6O)CC[C@@]56C[C@@]46CC[C@]23C)O1	124
O=C1\C=C/C=C2/[C@H]3CNC[C@H](C3)CN12	108
O=[N+]([O-])c1ncc[nH]1	93.1
